# Read-out: Urokinase-type plasminogen activator receptor (uPAR), PLAUR (gene 5329)
# testMethodNotes: BSK_4H_uPAR: BioMAP Diversity Plus: 4H Assay for Urokinase-type plasminogen activator receptor (uPAR) Biomarker Activity (AID 2283030)
# conditionsUsed: primary human endothelial cells (HUVEC); actives raise or lower the signal
The source made the active and inactive calls. The calls were made as follows: active = hit-call score of the fitted dose curve at least 0.9, where 1 is the maximum; inactive = score below 0.9.
Select the correct class. Options are class 1 = active, class 0 = inactive and nothing else.

A selection of reference data follows.
1) Cc1cccc([N+](=O)[O-])c1 | class 0
2) CCOC(=O)C(O)(c1ccc(Cl)cc1)c1ccc(Cl)cc1 | class 1
3) c1ccc(-c2ccccc2)cc1 | class 0

Could you kindly confirm the outcome this assay logged for C1CC2OC2CC1C1CO1 (configuration not stated) ?
class 0

For Clc1ccc(C(Cl)(Cl)Cl)cc1 , which call appears in the assay record?
class 0

For this compound, state the assay outcome: ClC1=C(Cl)[C@]2(Cl)[C@@H]3[C@@H]4C[C@@H]([C@H]5O[C@@H]45)[C@@H]3[C@@]1(Cl)C2(Cl)Cl
class 0

Can you look up the reported call for CCOP(=S)(OCC)SCSC(C)(C)C for me?
class 0

Which outcome did this test record for the compound Nc1ccc(-c2ccc(N)cc2)cc1 ?
class 0

Please state the recorded outcome for this compound: Cc1cc(-c2ccc(N)c(C)c2)ccc1N
class 0

How did this test come out for COS(=O)(=O)OC ?
class 0

Assay result, entry Oc1ccc(Cl)cc1Cl — outcome?
class 0

Tell me the recorded outcome of this test for Clc1ccc(Cl)cc1 .
class 0

Tell me the assay call for CC#Cc1cc(C)nc(Nc2ccccc2)n1 please.
class 0

Called result for CC(C)(c1ccccc1)c1ccc(O)cc1
class 1

What outcome does the record of this test show for Cc1cc(O)ccc1Cl ?
class 0

Recorded test outcome, item CCCCCCCCCc1ccc(O)cc1
class 1

// param item: COc1ccc(O)c(C(C)(C)C)c1 ; yields the recorded call
class 0

Entry CCCCCCCCOC(=O)c1ccccc1C(=O)OCCCCCCCC : call = ?
class 1

Recorded test call requested for CC1=C2C[C@H]3[C@@H](CC=C4C[C@@H](O)CC[C@@]43C)[C@@H]2CC[C@]12O[C@@H]1C[C@H](C)CN[C@H]1[C@H]2C
class 0

Field: outcome | Entry: ClC1=C(Cl)[C@]2(Cl)[C@@H]3[C@H]4C[C@H]([C@@H]5O[C@H]45)[C@@H]3[C@@]1(Cl)C2(Cl)Cl
class 0

// outcome(item) with item = O=C(O)C(F)(F)C(F)(F)C(F)(F)C(F)(F)C(F)(F)F
class 0

###

# Read-out: JUN Transcription Factor, JUN (gene 3725)
# testMethodNotes: LTEA_HepaRG_JUN: Life Technologies and Expression Analysis (LTEA) Assay for JUN Transcription Factor using HepaRG (AID 2283513)
# conditionsUsed: mRNA level, 48 h; actives raise or lower the signal
# Experimental: LTEA_HepaRG is a cell based, multiplexed-readout assay that uses HepaRG, a human liver cell line, with measurements taken at 48 hours after chemical dosing on a 96-well plate.LTEA_HepaRG_JUN is one of 102 assay component(s) measured in the LTEA HepaRG cell culture assay. It is a marker of Cell proliferation, survival, death.Data from the assay component LTEA_HepaRG_JUN was analyzed into 1 endpoint. […]
The source made the active and inactive calls. The calls were made as follows: active = hit-call score of the fitted dose curve at least 0.9, where 1 is the maximum; inactive = score below 0.9.
readoutLabel: AC50

Reference set (6 entries):
1. CCC(C)(c1ccc(O)cc1)c1ccc(O)cc1 | inactive
2. COc1ccc(O)c(C(C)(C)C)c1 | inactive
3. CCNc1nc(NC(C)C)nc(SC)n1 | inactive
4. CCC(C)c1cc([N+](=O)[O-])cc([N+](=O)[O-])c1O (stereo not given) | inactive
5. CCSC(=O)N(CC)C1CCCCC1 | inactive
6. CN(C)CCO | inactive

Please report the recorded AC50 for O=C(O)C(F)(F)C(F)(F)C(F)(F)C(F)(F)C(F)(F)C(F)(F)C(F)(F)C(F)(F)C(F)(F)F .
50 µM (active)

Could you share which AC50 value was measured for Cc1ccccc1CO[C@@H]1C[C@@]2(C(C)C)CC[C@]1(C)O2 ?
inactive

Sample CCCCCCOC(=O)c1ccccc1C(=O)OCCCCCC — what was its AC50?
inactive
